Reference source for all entries: ChEMBL document CHEMBL3244179

Target: Phenylethanolamine N-methyltransferase (Bos taurus) (UniProt P10938)
Sequence (P10938 whole entry): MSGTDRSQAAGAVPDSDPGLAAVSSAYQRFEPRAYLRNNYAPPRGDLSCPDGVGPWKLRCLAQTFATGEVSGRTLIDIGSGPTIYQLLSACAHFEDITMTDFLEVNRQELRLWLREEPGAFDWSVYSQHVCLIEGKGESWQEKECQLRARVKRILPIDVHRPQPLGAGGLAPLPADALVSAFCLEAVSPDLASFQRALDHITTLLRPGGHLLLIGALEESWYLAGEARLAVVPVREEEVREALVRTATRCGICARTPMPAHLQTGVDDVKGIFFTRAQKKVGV
Assay: Inhibition of bovine adrenal medulla PNMT at 0.2 mM by radiochemical technique
VALUE KIND: inhibition (%)
Return type: number; implicit unit %.

{"MOLECULE": "Nc1nnnc2c1ncn2[C@@H](CO)O[C@@H](CO)CSCC[C@@H](N)C(=O)O", "VAL": 0}
{"MOLECULE": "Nc1ncnc2c1ncn2[C@@H]1O[C@H](CSCC(N)C(=O)O)[C@@H](O)[C@H]1O (single isomer, unassigned)", "VAL": 11}

*Q* What does the record list as inhibition for Nc1ncnc2c1ncn2[C@@H](CO)O[C@@H](CO)CSCC[C@H](N)C(=O)O ?
*A* 0
